# maps each entry to its inhibition at 1 h, 1 µM
# TARGET UNDER TEST: MAO-B (Homo sapiens)
# Sequence (P27338 whole entry): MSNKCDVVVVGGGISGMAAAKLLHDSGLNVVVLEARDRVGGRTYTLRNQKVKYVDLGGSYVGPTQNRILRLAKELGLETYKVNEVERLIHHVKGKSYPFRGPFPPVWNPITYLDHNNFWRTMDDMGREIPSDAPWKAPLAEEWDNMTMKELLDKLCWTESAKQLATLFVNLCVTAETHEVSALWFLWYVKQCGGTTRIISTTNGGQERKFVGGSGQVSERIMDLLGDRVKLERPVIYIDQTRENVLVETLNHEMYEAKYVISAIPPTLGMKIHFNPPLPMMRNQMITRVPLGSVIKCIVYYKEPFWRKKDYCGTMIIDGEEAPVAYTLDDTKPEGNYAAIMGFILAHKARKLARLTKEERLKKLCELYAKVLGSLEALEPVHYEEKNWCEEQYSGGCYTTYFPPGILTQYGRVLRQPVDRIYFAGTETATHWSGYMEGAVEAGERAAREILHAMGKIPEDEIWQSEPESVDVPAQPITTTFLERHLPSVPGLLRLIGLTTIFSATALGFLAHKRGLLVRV
# TEST PROTOCOL: in vitro
# PROTOCOL CONDITIONS: MAO-B enzyme (unknown origin), probe beetle luciferin derived luminogenic substrate
Give the number; % is assumed, so skip it.

Some solved cases for reference:
1) CC(C)(C)c1ccc(CN[C@H]2C[C@@H]2c2ccccc2)cc1 (relative stereo) : 27
2) Ic1ccccc1CN[C@H]1C[C@@H]1c1ccccc1 (relative stereo) : 16
3) Brc1ccc(COc2ccc(CN[C@H]3C[C@@H]3c3ccccc3)cc2)cc1 (relative stereo) : 44
4) c1ccc(COc2ccc(CN[C@H]3C[C@@H]3c3ccccc3)cc2)cc1 (relative stereo) : 52
5) c1ccc(COc2cccc(CN[C@H]3C[C@@H]3c3ccccc3)c2)cc1 (relative stereo) : 23

Which inhibition at 1 h, 1 µM is listed for c1ccc(-c2ccc(CN[C@H]3C[C@@H]3c3ccccc3)cc2)cc1 (relative stereo) ?
82

Which inhibition at 1 h, 1 µM value belongs to Clc1cc(Cl)cc(CN[C@H]2C[C@@H]2c2ccccc2)c1 (relative stereo) ?
17

Need inhibition at 1 h, 1 µM, item Brc1ccc(COc2cccc(CN[C@H]3C[C@@H]3c3ccccc3)c2)cc1 (relative stereo)
32

---

Examples of compounds with documented inhibition at 1 h, 10 µM follow.
# TARGET UNDER TEST: MAO-A (Homo sapiens, UniProt P21397)
# TEST PROTOCOL: in vitro
# PROTOCOL CONDITIONS: MAO-A enzyme (unknown origin), probe beetle luciferin derived luminogenic substrate
A number alone suffices; assume %.

Past entries and their recorded results:
1. COc1cccc(CN[C@H]2C[C@@H]2c2ccccc2)c1 (relative stereo) : 79
2. CC(=O)Nc1ccc(CN[C@H]2C[C@@H]2c2ccccc2)cc1 (relative stereo) : 48

--- query ---
Look at this compound and give its reported inhibition at 1 h, 10 µM. Brc1ccccc1CN[C@H]1C[C@@H]1c1ccccc1 (relative stereo)
47

---

# TARGET UNDER TEST: MAO-B (Homo sapiens)
# TEST PROTOCOL: Inhibition of MAO-B (unknown origin) at 10 uM using beetle luciferin derived luminogenic substrate preincubated for 15 mins followed by substrate addition measured after 60 mins by MAO-Glo assay relative to control
# PROTOCOL CONDITIONS: MAO-B enzyme (unknown origin), probe beetle luciferin derived luminogenic substrate
EXPERIMENTAL READOUT: inhibition at 1 h, 10 µM (%)
Numeric only. Scale: %

Here are 6 compounds together with their reported answers.
1) O=[N+]([O-])c1cc(CN[C@H]2C[C@@H]2c2ccccc2)ccc1Cl (relative stereo) : 13
2) c1ccc(CN[C@H]2C[C@@H]2c2ccccc2)cc1 (relative stereo) : 33
3) Fc1cccc(CN[C@H]2C[C@@H]2c2ccccc2)c1 (relative stereo) : 20
4) Cn1c(CN[C@H]2C[C@@H]2c2ccccc2)cc2ccccc21 (relative stereo) : 14
5) COc1ccccc1CN[C@H]1C[C@@H]1c1ccccc1 (relative stereo) : 36
6) COc1ncccc1CN[C@H]1[C@@H](C)[C@@H]1c1ccccc1 (relative stereo) : 14

# input compound: Brc1ccc(CN[C@H]2C[C@@H]2c2ccccc2)cc1 (relative stereo) ; wanted: its inhibition at 1 h, 10 µM
27

Fill in the blank: the reported inhibition at 1 h, 10 µM of Brc1ccccc1CN[C@H]1C[C@@H]1c1ccccc1 (relative stereo) is ____.
24

Entry Fc1ccccc1CN[C@H]1C[C@@H]1c1ccccc1 (relative stereo) has what inhibition at 1 h, 10 µM?
16

Could you tell me which inhibition at 1 h, 10 µM is on file for Clc1ccccc1CN[C@H]1C[C@@H]1c1ccccc1 (relative stereo) ?
21

Entry Clc1ccc(CN[C@H]2C[C@@H]2c2ccccc2)c(Cl)c1 (relative stereo) : reported inhibition at 1 h, 10 µM = ?
11

Need inhibition at 1 h, 10 µM, item CC(=O)Nc1ccc(CN[C@H]2C[C@@H]2c2ccccc2)cc1 (relative stereo)
17

---

# TARGET UNDER TEST: MAO-A (Homo sapiens)
# TEST PROTOCOL: Inhibition of MAO-A (unknown origin) at 1 uM using beetle luciferin derived luminogenic substrate preincubated for 15 mins followed by substrate addition measured after 60 mins by MAO-Glo assay relative to control
# PROTOCOL CONDITIONS: MAO-A enzyme (unknown origin), probe beetle luciferin derived luminogenic substrate
Classification field: enter fulfilled for inhibition at 1 h, 1 µM values not below 30%, not fulfilled for values below it.

1. CC(C)(C)c1ccc(CN[C@H]2C[C@@H]2c2ccccc2)cc1 (relative stereo) : not fulfilled
2. CCc1ccc(CN[C@H]2C[C@@H]2c2ccccc2)cc1 (relative stereo) : fulfilled
3. Cc1ccc(CN[C@H]2C[C@@H]2c2ccccc2)cc1Cl (relative stereo) : fulfilled

Consider the additional molecule presented here.
Could you verify whether the entry Ic1ccccc1CN[C@H]1C[C@@H]1c1ccccc1 (relative stereo) shows inhibition at 1 h, 1 µM of no less than 30%?
not fulfilled

---

# TARGET UNDER TEST: UniProt P21397
# TEST PROTOCOL: Inhibition of MAO-A (unknown origin) at 1 uM using beetle luciferin derived luminogenic substrate preincubated for 15 mins followed by substrate addition measured after 60 mins by MAO-Glo assay relative to control
# PROTOCOL CONDITIONS: MAO-A enzyme (unknown origin), probe beetle luciferin derived luminogenic substrate
EXPERIMENTAL READOUT: inhibition at 1 h, 1 µM (%)
I only need the number, in %, no unit after it.

Reference set, count: 8
1) CN(C)c1ccc(CN[C@H]2C[C@@H]2c2ccccc2)cc1 (relative stereo) : 30
2) O=[N+]([O-])c1ccc(N[C@H]2C[C@@H]2c2ccccc2)s1 (relative stereo) : 94
3) c1ccc(COc2ccc(CN[C@H]3C[C@@H]3c3ccccc3)cc2)cc1 (relative stereo) : 93
4) Brc1ccc(COc2cccc(CN[C@H]3C[C@@H]3c3ccccc3)c2)cc1 (relative stereo) : 100
5) Brc1cccc(CN[C@H]2C[C@@H]2c2ccccc2)c1 (relative stereo) : 38
6) c1ccc(COc2cccc(CN[C@H]3C[C@@H]3c3ccccc3)c2)cc1 (relative stereo) : 60
7) Fc1cc(Br)ccc1CN[C@H]1C[C@@H]1c1ccccc1 (relative stereo) : 27
8) Brc1ccc(COc2ccc(CN[C@H]3C[C@@H]3c3ccccc3)cc2)cc1 (relative stereo) : 100

Bench note: what inhibition at 1 h, 1 µM did O=[N+]([O-])c1ccc(N[C@H]2C[C@@H]2c2ccccc2)o1 (relative stereo) show?
27

---

# TARGET UNDER TEST: UniProt P21397
# Sequence (P21397 whole entry): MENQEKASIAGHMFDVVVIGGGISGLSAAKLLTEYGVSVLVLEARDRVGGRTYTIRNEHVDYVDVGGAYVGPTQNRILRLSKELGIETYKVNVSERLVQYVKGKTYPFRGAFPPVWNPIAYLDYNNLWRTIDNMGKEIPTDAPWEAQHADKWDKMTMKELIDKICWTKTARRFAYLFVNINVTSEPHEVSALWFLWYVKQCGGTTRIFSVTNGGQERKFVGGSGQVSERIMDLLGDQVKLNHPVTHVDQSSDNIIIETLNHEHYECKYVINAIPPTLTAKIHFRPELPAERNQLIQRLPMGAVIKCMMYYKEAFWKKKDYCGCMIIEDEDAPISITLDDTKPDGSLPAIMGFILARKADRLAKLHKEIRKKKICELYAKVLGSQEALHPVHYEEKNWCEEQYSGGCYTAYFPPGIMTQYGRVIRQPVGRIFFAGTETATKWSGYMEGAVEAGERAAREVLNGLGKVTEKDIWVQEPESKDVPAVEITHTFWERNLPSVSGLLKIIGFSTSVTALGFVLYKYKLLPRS
EXPERIMENTAL READOUT: log10 of IC50 (log10 of the value in µM)
Reminder: these figures are log10 of reported IC50, in µM before transformation.

1. NS(=O)(=O)c1ccc(CN[C@H]2C[C@@H]2c2ccccc2)cc1 (relative stereo) : 1.33
2. C[C@@H]1[C@H](NCc2cccc([N+](=O)[O-])c2)[C@H]1c1ccccc1 (relative stereo) : -0.63
3. O=[N+]([O-])c1cccc(CN[C@H]2C[C@@H]2c2ccccc2)c1 (relative stereo) : -0.31

Item CNS(=O)(=O)c1ccc(CN[C@H]2C[C@@H]2c2ccccc2)cc1 (relative stereo) has what recorded log10 of IC50?
1.23

State the recorded log10 of IC50 for this entry: c1ccc(CN[C@H]2C[C@@H]2c2ccccc2)cc1 (relative stereo)
0.76

Recorded log10 of IC50 for Clc1ccc(CN[C@H]2C[C@@H]2c2ccccc2)cc1 (relative stereo) , please?
-0.69

Which log10 of IC50 value belongs to NC(=O)c1cccc(CN[C@H]2C[C@@H]2c2ccccc2)c1 (relative stereo) ?
1.45

These measurements were taken from ChEMBL document CHEMBL4251603.
